Recorded values, source patent US7635706B2.

Quick record of pIC50 values for h5-HT4b (Homo sapiens, UniProt Q13639).
Reminder that pIC50 means the negative base-10 logarithm of the concentration expressed in mol/L.

Sample records with pIC50:
{"COMPOUND": "CNCCN1CC[C@@H](CNC(=O)c2cc(Cl)c(Br)c3c2OCCCO3)[C@H](O)C1", "TARGET": "h5-HT4b (Homo sapiens, UniProt Q13639)", "QUANTITATIVE_READOUT": 7.56}
{"COMPOUND": "CCOc1ccc(C(=O)NC[C@@H]2CCN(CCCC#N)C[C@H]2O)c2c1OCCCO2", "TARGET": "h5-HT4b (Homo sapiens, UniProt Q13639)", "QUANTITATIVE_READOUT": 8.06}
{"COMPOUND": "Cc1ccc(C(=O)NC[C@@H]2CCN(CCCCOc3ccc(S(N)(=O)=O)cc3)C[C@H]2O)c2c1OCCCO2", "TARGET": "h5-HT4b (Homo sapiens, UniProt Q13639)", "QUANTITATIVE_READOUT": 9.09}

Write down the reported pIC50 of CCCCN1CC[C@@H](CNC(=O)c2ccc(OC)c3c2OCCCO3)[C@H](O)C1 , test system: h5-HT4b (Homo sapiens, UniProt Q13639). 9.48

Return pIC50 measured with h5-HT4b (Homo sapiens, UniProt Q13639) given this compound: CO[C@@H]1CN(CCn2ccn(C(C)C)c2=O)CC[C@H]1CNC(=O)c1cc(Cl)c(Cl)c2c1OCCCO2 8.08

----------
Target: h5-HT4b (Homo sapiens, UniProt Q13639)
Sequence (Q13639 whole entry): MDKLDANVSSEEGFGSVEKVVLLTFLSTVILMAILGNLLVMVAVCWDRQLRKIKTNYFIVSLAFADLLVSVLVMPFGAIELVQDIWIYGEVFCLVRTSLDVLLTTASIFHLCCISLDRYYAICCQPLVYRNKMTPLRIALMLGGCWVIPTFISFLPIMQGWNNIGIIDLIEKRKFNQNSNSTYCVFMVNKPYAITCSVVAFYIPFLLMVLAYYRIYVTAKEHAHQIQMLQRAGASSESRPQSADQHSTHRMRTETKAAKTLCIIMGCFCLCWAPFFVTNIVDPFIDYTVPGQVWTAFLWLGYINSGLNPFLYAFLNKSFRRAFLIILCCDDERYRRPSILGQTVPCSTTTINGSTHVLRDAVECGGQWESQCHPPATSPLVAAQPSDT
ASSAY_READOUT: pIC50
Friendly reminder that pIC50 comes from taking -log10 of the concentration in mol/L.

State its pIC50 on h5-HT4b (Homo sapiens, UniProt Q13639): COc1ccc(C(=O)NC[C@@H]2CCN(CCCO)C[C@H]2O)c2c1OCCCO2 [compound 99] 8.14

Request: pIC50, test system h5-HT4b (Homo sapiens, UniProt Q13639), entry CO[C@@H]1CN(CCC2OCCO2)CC[C@H]1CNC(=O)c1cc(Cl)c(Br)c2c1OCCCO2 8.22

Given the entry O=C(NC[C@@H]1CCN(CC2OCCO2)C[C@H]1O)c1cc(Cl)c(Br)c2c1OCCCO2 , what pIC50 was observed with h5-HT4b (Homo sapiens, UniProt Q13639)? 8.20

----------
Below are IC50 values recorded for h5-HT4b (Homo sapiens).
Give a bare numeral; the unit nM is implied.

Sample records with IC50:
{"COMPOUND": "COc1ccc(C(=O)NC[C@@H]2CCN(CCCO)C[C@H]2O)c2c1OCCCO2 [compound 113]", "IC50, nM": 3.24}
{"COMPOUND": "COc1ccc(C(=O)NC[C@@H]2CCN(CCOCCO)C[C@H]2O)c2c1OCCCO2", "IC50, nM": 13.8}

GET /values?readout=IC50&system=h5-HT4b (Homo sapiens)&item= CNCCN1CC[C@@H](CNC(=O)c2cc(Cl)c(OC)c3c2OCCO3)[C@H](OC)C1 490

Short answer please: IC50, h5-HT4b (Homo sapiens), entry COc1c(Cl)cc(C(=O)NC[C@@H]2CCN(CCC3OCCO3)C[C@H]2OC)c2c1OCCCO2 21.4

# value lookup — system h5-HT4b (Homo sapiens), readout IC50, item COc1c(Cl)cc(C(=O)NC[C@@H]2CCN(CCOCCO)C[C@H]2O)c2c1OCCO2 9.55

IC50 of COc1c(Cl)cc(C(=O)NC[C@@H]2CCNC[C@H]2O)c2c1OCCCO2 on h5-HT4b (Homo sapiens)? 43.7

Request body: readout IC50, system h5-HT4b (Homo sapiens), query CNCCCCN1CC[C@@H](CNC(=O)c2cc(Cl)c(OC)c3c2OCCCO3)[C@H](O)C1 . Return the value. 14.1

Tell me reported IC50 for COc1c(Cl)cc(C(=O)NC[C@@H]2CCN(CCC3OCCO3)C[C@H]2OC)c2c1OCCO2 , tested with h5-HT4b (Homo sapiens). 30.9

Checklist item: IC50 tested on h5-HT4b (Homo sapiens), entry CCCCN1CC[C@@H](CNC(=O)c2cc(Cl)c(Br)c3c2OCCCO3)[C@H](O)C1 , value? 1.41

Given the entry CCN1CC[C@@H](CNC(=O)c2ccc(OC)c3c2OCCCO3)[C@H](OC)C1 , what IC50 was observed with h5-HT4b (Homo sapiens)? 28.2

Request: IC50, test system h5-HT4b (Homo sapiens), entry O=C(NC[C@@H]1CCN(CCOCCO)C[C@H]1O)c1cc(Cl)c(Br)c2c1OCCCO2 3.09
